Assay: yeast display, Sf9 membrane polyspecificity reagent, FACS + sequencing; frameworks hold sequencing errors
QUANTITY_KIND: polyreactivity (PSR sort gate)

[
  {
    "SEQUENCE_CHAIN": "QVQLVESGGGLVQAGGSLRLSCAASGRTFILNAMGLYRQAPGKERELVAAISWSGGSTYYADSVKGRFTISRDNAKNTVYLQMNSLKPEDTAVYYCAAETYAYLFHTYDYWGQGTQVTVSS",
    "polyreactivity (PSR sort gate)": "low polyreactivity"
  },
  {
    "SEQUENCE_CHAIN": "QVQLVESGGGLVQAGGSLRLSCAASGSIFDVYAMGWYRQAPGKERELVAAITWRGGSTYYADSVKGRFTISRDNAKNTVYLQMNSLKPEDTAVYYCAAVYQSRLWDRYYYWGQGTQVTVSS",
    "polyreactivity (PSR sort gate)": "high polyreactivity"
  },
  {
    "SEQUENCE_CHAIN": "QVHLVESGGGLVQAGGSLRLSCAASGSTIVDYHMAWYRQAPGKERELVASISSSGGSTYYADSVKGRFTISRDNAKNTVYLQMNSLKPEDTAVYYCAADTWGFWYWGPLFSKYGYWGQGTQVTVSS",
    "polyreactivity (PSR sort gate)": "low polyreactivity"
  },
  {
    "SEQUENCE_CHAIN": "QVQIGESGGGLVQAGGSLRLSCAACGFIFYRYAMGWYRQAPGKERELVAAISWSGGTTYYADSVKGRFTISRDNAKNTDYLQMNSLKPEDTAVYYCNARYPRSSPFGYWGQGTQVTVSS",
    "polyreactivity (PSR sort gate)": "high polyreactivity"
  }
]

Moving on to another sequence below.
# sequence QVQLVESGGGLVQAGGSLLLICAASGFIFVPYAMGWYRQAPGKEREFVATITWRGDSTYYADSVKGRFTISRDNAKNTVYLQMNSLKPEDTAVYYCAVYPIRLWAYDYWGQGTQVTVSS ; its polyreactivity (PSR sort gate) = low polyreactivity

* * *

Assay: yeast display, Sf9 membrane polyspecificity reagent, FACS + sequencing; frameworks hold sequencing errors

[
  {
    "SEQUENCE_CHAIN": "QVQLVQSGGGLVQAGGSLRLSCAASGSTFTPNDMGWYRQAPGKERELVAAIDWSGGSTYYADSVKGRFTISRDNAKNTVYLQMNSLKPEDTAVYYYNADSSKFYSHGEYEYWGQGTQVTVSS",
    "polyreactivity (PSR sort gate)": "low polyreactivity"
  },
  {
    "SEQUENCE_CHAIN": "QVQLVESGGGLVQAGGSLRLSGAASGRTFVSYTMGWYRQAPGKERQLVAAISDDGDSTYYADSVKGRFTISRDYAKNTVYLQMNSLKPEDTAVYYCAAGEYQYFWFPFDYWGQGTQVTVSS",
    "polyreactivity (PSR sort gate)": "low polyreactivity"
  }
]

* * *

Test: yeast display, Sf9 membrane polyspecificity reagent, FACS + sequencing; frameworks hold sequencing errors
QUANTITY_KIND: polyreactivity (PSR sort gate)

As a guide, the following entries are already answered.
[
  {
    "SEQUENCE_CHAIN": "QVQLVEAGGGLVQAGGSLRLSCAASGSTFSYAMGWYRQAPGKETELVAAITIGGRTSYADSVKGRFTISRDNAKNTVYLQMNSLKPEDTAVYYCAAEGYYPVYYYVYYGFDYWGQGTQVTVSS",
    "polyreactivity (PSR sort gate)": "low polyreactivity"
  },
  {
    "SEQUENCE_CHAIN": "QVQLVESGGGLVQAGGSLRLSCAASGSTFLKYTMGWYRQAPRKDRELVAGITRSSRSTYYADSVKGRFTISRDNAKYTVYLQMNSLKPEDTAVYYCAATVYLYTDLAYYWFGYWGQGTQVTVAS",
    "polyreactivity (PSR sort gate)": "high polyreactivity"
  },
  {
    "SEQUENCE_CHAIN": "QVQLVESGGGLVQAGGSLRLSCAASGFIFGFYAMGWYRQAPGKERELVAAISGGGGRTNYADSVKGRFTISRDNAKNTVYLQMNSLKPEDTAVYYCARSPSYYSYTFGRQAYGNDYWGQGTQVTVSS",
    "polyreactivity (PSR sort gate)": "high polyreactivity"
  },
  {
    "SEQUENCE_CHAIN": "QVQLVESGGGLVQAGGSLRLSCAASGFIIEVNAMGWYRQAPGKERELVARIDWSGGSTYYADSVKWRFTISRDNAKNTVYLQMNILKPEYTEVYYCNAEWTYADPNEYGYWGQGTLVTVSS",
    "polyreactivity (PSR sort gate)": "low polyreactivity"
  },
  {
    "SEQUENCE_CHAIN": "QVQHVESGGGLVQAGGSLRLSCAASGGIFPTYVMGWYRQAPGKERELVAAIDRNGTSTTYADSVMGRFTISRDNAKNTVYLQMNSLKPEDTAVYYCAAGYNDQTTAYDYWGQGTQVTVSS",
    "polyreactivity (PSR sort gate)": "low polyreactivity"
  },
  {
    "SEQUENCE_CHAIN": "QVQLVESGGGLVQAGVSLRLSCAASGGTIVGNAMGWYRQAPGKERELVAAMSTNSGSTYYADSVKGRFTISRDNAKNTVYLQMNSLKPEDTAVYYFATRNSSKRRGYYYWGQGTQVTVSS",
    "polyreactivity (PSR sort gate)": "high polyreactivity"
  },
  {
    "SEQUENCE_CHAIN": "QVQLVESRGGLVQAGCSLRLSCAASGSIFLHKAMGWYRQAPGKERELVAVITSRGGSTYYADSVKGRFTISRDNAKITVYVQMNSLNPEDPAVYYCAAPDYHKRTSRGDYWGQGTQVTVSS",
    "polyreactivity (PSR sort gate)": "low polyreactivity"
  },
  {
    "SEQUENCE_CHAIN": "QVQLVESGGGLVQAGGSLRLSCAASASTFSTYAMGSYRQAPGKERELVAAISWSGGSTNYADSVKGRLTISRDIAKYTVYLQMNSLKPEDTAVYYCGARWTSRYDYWGQGTQVTVSS",
    "polyreactivity (PSR sort gate)": "high polyreactivity"
  },
  {
    "SEQUENCE_CHAIN": "QVQLVESGGGLVQAGGSLRLSCAASGSIFDYYTMGWYRQAPGKEREFVAGISDSGGSTNYADSVKGRFTISRDNAKNTVYLQMNSLKPEDTAVYYCNAEYVGWFYKYDYWGQGTQVTVSS",
    "polyreactivity (PSR sort gate)": "high polyreactivity"
  },
  {
    "SEQUENCE_CHAIN": "QVQLVESGGGLVQAGGSLRLSCAASGYILTHYAMGWYRQAPGKERELVAAITRVGNSNYADSVKGRFTISRDNAKNTVYLQMNSLKPEDTAVYYCAADGVASLFGDPPTEFDYWGQGTQVTVSS",
    "polyreactivity (PSR sort gate)": "low polyreactivity"
  }
]

QVQLVESGGGLVQAGGSLRLSCAASGFIFWKNAMGWYRQAPGKERELVAAISWSGGRTYYADSVKGRFTISRDNAKNTVYLQMNSLKPEDTAVYYCNAAGRYKPGAPYDYWGQGTQVTVSS has a reported polyreactivity (PSR sort gate) of low polyreactivity

Looking up QVQLVESGGGLVQAGGSLRLTCAASGSTFYIYAMGWDRQAPGKEAEFVAAIDFSGSSTYADSVKGRFTISRDNAKNTVYLQMNSLKPEDTAVYYCAAYQIYQYDGPYDYWGEGTQVTVSS , I found its polyreactivity (PSR sort gate) recorded as low polyreactivity

GET /value?item= QVQLVESGGGLVQAGGSLRLSCAASGRIFTSNAMGWYRQAPGKERELVASITSSSSTNYADSVKGRFTLSRDNAKNTVYLQMNSLKPEDTAVYYCAAERVWPYGHDYWGQGTQVTVSS &field=polyreactivity (PSR sort gate) returns low polyreactivity

Record QVQLVESGGGLVQAGGSLRLSCAASGSTFWEYVMGWYRQAPGKERELVAAITTNDDSTYYADSVKGRFTISRDNAKNTVYLQMNSLKPEDTAVYYFNADQITGQFDYWGQGTQVTVSS . Reported polyreactivity (PSR sort gate): low polyreactivity

Recorded result, QVQLVESGGGLVQAGGSLRLSCAASGHIFGRYAMGWYRQAPGKERELVAAITSGGRTNYADSVKGRFTISRDNAKNTVYLQMNSLKPEDTAVYYCAAYSWYFGSRYDYWGQGTQVTVSS , polyreactivity (PSR sort gate): low polyreactivity

* * *

Assay: yeast display, Sf9 membrane polyspecificity reagent, FACS + sequencing; frameworks hold sequencing errors
QUANTITY_KIND: polyreactivity (PSR sort gate)

Worked cases, answers included:
[
  {
    "SEQUENCE_CHAIN": "QVQHVESGGGLVQAGGSLPLSCAASGFIFTSNSMGWYRQAPGKESEFVAAITSGGITYYADSVKGRFTISRDNAKNTVYLQMNSLKPEDTAVYYCAAVLSYQTPKYYRWRYGYWGQGTQVTVSS",
    "QUANTITY_KIND": "polyreactivity (PSR sort gate)",
    "ENDPOINT_RESULT": "low polyreactivity"
  },
  {
    "SEQUENCE_CHAIN": "QVQLVESGGGLVQAGGSLRLSCAASGSTFPYYTMGWYRQAPGKERELVAAITWRGGRTYYADSVKGRFTISRDNAKNTVYLQMNSLKPEDTAVYYCAAVTWVHRYSRFHPFVAFDFWGQGTQVTVSS",
    "QUANTITY_KIND": "polyreactivity (PSR sort gate)",
    "ENDPOINT_RESULT": "high polyreactivity"
  },
  {
    "SEQUENCE_CHAIN": "QVQLVESGGGLVQAGGSLRLSCAASGNSFYFYAMGWYRQAPGKERELVAAIDLTDGSTYYADSVKGRFTISRDNAKNTVYLQMNSLKPEDTAVYYCAADWVTFYSYTEYDYWGLGTQVTVSS",
    "QUANTITY_KIND": "polyreactivity (PSR sort gate)",
    "ENDPOINT_RESULT": "low polyreactivity"
  },
  {
    "SEQUENCE_CHAIN": "QVQLEESRGGLVQAGGSHRLSCAAYGSIFRSYAMGWYRQAPGKERDLVAAISSRSGSTYYADSVKGRFTISRDNAKNTVYLQMNSLKPEDTAVYYCAAQHRHSFGYWGQGTQVTVSS",
    "QUANTITY_KIND": "polyreactivity (PSR sort gate)",
    "ENDPOINT_RESULT": "high polyreactivity"
  },
  {
    "SEQUENCE_CHAIN": "QVQLVESGGGLVQAGGSLRLSCAASGRPFKRYAMGWYRQAPGKEREVVAAITASGGNTYYADSVKGRFTISRDNAKNTVYLQMNSLKPEDTAVYYCARGSYSGGSKYNYWGQGTQVTVSS",
    "QUANTITY_KIND": "polyreactivity (PSR sort gate)",
    "ENDPOINT_RESULT": "high polyreactivity"
  }
]

The value of polyreactivity (PSR sort gate) measured for the sequence QLQHVESGGCLVQAGASLRLSCAASRLIFFYYAMGWSRQAPGKERELVAAIRTNYADSVKGRITSSRDNAKNTVYLQMNSQKPEDTAVYYCAAESSQSPTSAFDYWGQGTQVTVSA turned out to be low polyreactivity

Documented polyreactivity (PSR sort gate) of QVQLVESGGGLVQAGGSLRLSCAASGFIFAYYAQGWYRQAPGKERELVAAITSRGGSTYYADSVKGRFTSSRDNAKNTVYVQMNSLKPEDTAVYYCAGRGYQRQYYYWGQGTQVTVSS : high polyreactivity

Lookup result for QVQLVESGGGLVQAGGSLRLSCAASGITLYGNAMGWYRQAPGKEREFVAAISRSGDRTYYADSVKGRFTISRDNAKNTVYLPMYSLKPEDTAVYSCARDYRSYTGSYDTSYDYWGQGTQVTVSS ; measured polyreactivity (PSR sort gate): high polyreactivity

// QVQLVESGGGLVQAGGSLRLSCAASGRTFGDYAMGWSRQAPGKERELVAAIDVDGGSTYYADSVKGRFTISRDNAKNTVYLQMNSLKPEDTAVYYCNAQAPYWFSFYSDHKYDYWGQGTQVTVSS : polyreactivity (PSR sort gate) value = low polyreactivity

QVQLVESGGGLVQAGGSLRLSCAASGFTYRWYAMGWYRQAPGKETELVAAISWDGGSTYYADSVKGRFTISRDNAKNTVYLQMNSLKPEDTAVYFCATVKSLRYWWQNEYGYWGQGTQVTVSS yielded polyreactivity (PSR sort gate) of high polyreactivity
